tested on: SF-268 CNS; test: NCI tumour cell line growth inhibition, 48 h
The following molecules are listed with their measured TGI values.

Please look at this molecule and report its TGI: `O=[N+]([O-])C(=C(Nc1ccccc1)Nc1ccccc1)/C(Cl)=C(\Cl)[N+](=O)[O-]`
14.6 µM

Please look at this molecule and report its TGI: `Cc1cc(C)n(-c2nsc3ccccc23)n1`
> 100 µM

Please look at this molecule and report its TGI: O=C(O)C1=C(O)C(C(=O)O)C23CCCCCCCCCCC12C(C(=O)O)C(O)=C3C(=O)O (centres undefined)
> 100 µM

Please look at this molecule and report its TGI: `Cc1ccc2nc3c(=O)[nH]c(=O)nc-3n(C)c2c1C`
> 100 µM

* * *

tested on: MDA-MB-435; test: NCI tumour cell line growth inhibition, 48 h
outcome.measure: TGI

Record excerpt, results attached:
• Cc1c(C)c(C)c(-n2c(=O)n(C)c(=O)n2-n2c(=O)n(C)c(=O)n2-c2c(C)c(C)c(C)c(C)c2C)c(C)c1C = > 100 µM
• COc1ccc(/C=C2\NC(=S)N(/C=C3\C(=O)Oc4ccccc4C3=O)C2=O)cc1OC = > 100 µM
• C=C[C@@]1(C)CC[C@@H]2[C@@]3(C1)O[C@H]3CC1[C@](C)(C(=O)OC)CCC[C@@]12C (stereo not given in full) = > 100 µM
• O=c1cc(-c2ccccc2)[nH]c2ccc(N3CCOCC3)cc12 = > 100 µM

Retrieve TGI on MDA-MB-435; query `S=c1nc(N2CCCCC2)c2cn[nH]c2[nH]1`
> 100 µM

* * *

The following compounds are listed with their measured TGI values.
system: U251 CNS; test: NCI tumour cell line growth inhibition, 48 h

* CN1CCc2c3n(c4cc(Br)ccc24)[C@H](O)CCCC31 (some centres not stated) | 3.35 µM

Please look at this compound and report its TGI: `Cc1c[n+](=O)c2ccccc2n1[O-]`
> 100 µM

Please look at this compound and report its TGI: `N#Cc1ccc(OCc2nc(N)nc(N)c2-c2ccc(Cl)c(Cl)c2)cc1`
> 100 µM

Please look at this compound and report its TGI: `COc1ncnc2c(-c3ccccc3)cn(COCc3ccccc3)c12`
> 100 µM

Please look at this compound and report its TGI: O=C(O)CCC(=O)N1c2ccccc2CC1c1c[nH]c2ccccc12 (configuration not stated)
> 100 µM

* * *

The following compounds are listed with their measured log10 TGI values.
test system: CCRF-CEM leukemia; assay: NCI tumour cell line growth inhibition, 48 h
Kindly note that the scale is log10 and the underlying TGI is in µM.

Record excerpt, results attached:
* O=C(NNC(=S)Nc1ccccc1)c1cc(-c2ccccc2)nc2ccccc12 | 1.48
* C=C1C(=O)O[C@H]2[C@H]1CC/C(COC(=O)CSCSCC(=O)OC/C1=C/CC[C@@]3(C)O[C@H]3[C@H]3OC(=O)C(=C)[C@@H]3CC1)=C\CC[C@@]1(C)O[C@@H]21 | 0.17
* COC12C=C/C(=C(/C(=O)OCc3cncnc3)C(=O)CCCCCCCCC3(OC)C=C/C(=C(/C(=O)OCc4cncnc4)C(=O)CCCCCCCC1)O3)O2 | 0.58
* CC1=NN(c2cccc(Cl)c2)C(=N/c2nc3ccccc3s2)/C1=C\c1ccc(Cl)cc1 | 1.99
* CC1(C)C2CCC13C(=O)C1OC3(C2)C2C(=O)c3cc4ccccc4cc3C(=O)C12 (centres undefined) | 1.41
* BrC1=CCC23CC=C(Br)[C@H]4CC2(COC3)C[C@@H]1O4 (some centres undefined) | 1.90

Next compound, please.
Please look at this compound and report its log10 TGI: `CCN(Cc1cc(Nc2nc(C)cn3c(-c4cn[nH]c4)cnc23)sn1)C(C)(C)CO`
0.98

* * *

test system: UO-31 renal; assay: NCI tumour cell line growth inhibition, 48 h
outcome.measure: GI50

Record excerpt, results attached:
• O=c1[nH]nnc2c1ncn2C1OC(CO)C(O)C1O (configuration not stated) = 3.18 µM
• C[C@]12CC[C@@H]3c4ccc(OC(=O)N(CCCl)CCCl)cc4CC[C@H]3[C@@H]1CC[C@@H]2O = 3.12 µM
• N#Cc1ccc(OCc2nc(N)nc(N)c2-c2ccc(Cl)c(Cl)c2)cc1 = 3.79 µM

Please look at this compound and report its GI50: `C=C1C(=O)O[C@H]2[C@H]1CC/C(COC(=O)CSCSCC(=O)OC/C1=C/CC[C@@]3(C)O[C@H]3[C@H]3OC(=O)C(=C)[C@@H]3CC1)=C\CC[C@@]1(C)O[C@@H]21`
1.27 µM

Please look at this compound and report its GI50: `N.N.N.N.[Co+3].[N-]=[N+]=[N-].[N-]=[N+]=[N-].[N-]=[N+]=[N-]`
29.2 µM

Please look at this compound and report its GI50: `COc1cc(/C=C\c2cc(OC)c(OC)c(OC)c2)cc(NC(=O)/C=C/c2cc(OC)c(OC)c(OC)c2)c1OC`
1.09 µM

Please look at this compound and report its GI50: `CCOC(=O)/C(C=Nc1ccc(-c2nc3ccccc3[nH]2)cc1)=C(/C)O`
10.3 µM

* * *

system: NCI-H460 lung; test: NCI tumour cell line growth inhibition, 48 h
outcome.measure: TGI

Record excerpt, results attached:
* CCN(Cc1cc(Nc2nc(C)cn3c(-c4cn[nH]c4)cnc23)sn1)C(C)(C)CO | 4.59 µM
* COc1ccc([C@H]2CC(=O)C[C@H](c3ccc(OC)cc3)C23C(=O)c2ccccc2C3=O)cc1 | > 100 µM
* O=C(CCCCCCNC(=O)c1cnc(N(c2ccccc2)c2ccccc2)nc1)NO | > 100 µM
* COc1ccc2nc3cc(Cl)ccc3c(NCCNC(=O)Cn3c(=O)n(C)c(=O)c4c3nc3c(c(=O)n(C)c(=O)n3C)[n+]4[O-])c2c1 | > 100 µM
* Cc1ccc(NCC(=O)N2CC(=O)Nc3ccccc32)c(C)c1 | > 100 µM

Retrieve TGI on NCI-H460 lung; query C=C[C@@]1(C)CC[C@@H]2[C@@]3(C1)O[C@H]3CC1[C@](C)(C(=O)OC)CCC[C@@]12C (some centres undefined)
31.3 µM

Retrieve TGI on NCI-H460 lung; query `C[C@@]1(O)C[C@@H](N2C(=O)O[C@@H](c3ccccc3)[C@H]2c2ccccc2)[C@@H]1COCc1ccccc1`
68.1 µM

Retrieve TGI on NCI-H460 lung; query `COc1ccc(-c2cc3c(c4cc(OC)ccc24)C(=O)OC3=O)cc1`
> 100 µM

Retrieve TGI on NCI-H460 lung; query `O=c1[nH]nc(-c2ccccc2)n1Nc1ccccc1`
> 100 µM

Retrieve TGI on NCI-H460 lung; query `CCOC(=O)N1CCN(/[N+]([O-])=N/Oc2ccc([N+](=O)[O-])cc2[N+](=O)[O-])CC1`
18 µM

Retrieve TGI on NCI-H460 lung; query `COc1c2cc(C(C)(C)C)cc1Cc1cccc(c1OCc1cccc([N+](=O)[O-])c1)Cc1cc(C(C)(C)C)cc(c1OC)Cc1cccc(c1OCc1cccc([N+](=O)[O-])c1)Cc1cc(C(C)(C)C)cc(c1OC)Cc1cccc(c1OCc1cccc([N+](=O)[O-])c1)C2`
> 50 µM

Retrieve TGI on NCI-H460 lung; query C=CCNC(=O)N(CCCCC(NC(C)=O)C(=O)NCc1ccccc1)Cc1ccccc1 (centres undefined)
> 100 µM

Retrieve TGI on NCI-H460 lung; query O=C(O)CCC(=O)N1c2ccccc2CC1c1c[nH]c2ccccc12 (centres undefined)
> 100 µM

Retrieve TGI on NCI-H460 lung; query `COc1ccc(CCCCl)c(C2=NCCc3cc(OC)c(OC)cc32)c1`
> 100 µM

Retrieve TGI on NCI-H460 lung; query CC1(C)C2CCC13C(=O)C1OC3(C2)C2C(=O)c3cc4ccccc4cc3C(=O)C12 (centres undefined)
> 100 µM

Retrieve TGI on NCI-H460 lung; query `CCc1ccccc1NC(=O)C1=C(C)NC(C)=C(C(=O)Nc2ccccc2CC)C1c1ccccc1Cl`
> 100 µM

* * *

tested on: OVCAR-3 ovarian; experiment: NCI tumour cell line growth inhibition, 48 h
outcome.measure: TGI

Record excerpt, results attached:
• C=C(CCOC)CCC1CCCCC(=C)[C@H]1OC(C)=O (some centres not stated) = > 100 µM
• O=[N+]([O-])C(=C(Nc1ccccc1)Nc1ccccc1)/C(Cl)=C(\Cl)[N+](=O)[O-] = 12 µM
• CC(C)Cn1cnc2c(SCc3ccc(Cl)cc3Cl)nc(N)nc21 = > 100 µM

Please look at this compound and report its TGI: `O=C1NC2=C(CCCC/C2=N\O)C12CCCCC2`
> 100 µM

Please look at this compound and report its TGI: `Cn1c(=O)c2c(nc3n(CCCCl)c(=O)ccn23)n(C)c1=O`
> 100 µM

Please look at this compound and report its TGI: c1cncc(C2(c3cc4ccccc4[nH]3)COCO2)c1 (configuration not stated)
> 100 µM

Please look at this compound and report its TGI: `Cc1c[n+](=O)c2ccccc2n1[O-]`
> 100 µM

Please look at this compound and report its TGI: `CN(CCO)CC[C@H](CSc1ccccc1)Nc1ccc(S(=O)(=O)NC(=O)c2ccc(N3CCC([C@@H](O)c4ccccc4-c4ccc(Cl)cc4)CC3)cc2)cc1S(=O)(=O)C(F)(F)F`
13 µM

Please look at this compound and report its TGI: CC1=C(c2ccccc2)C(c2ccccc2)=C(c2ccccc2)C2(c3ccccc3)C(=O)C(C)CN12 (configuration not stated)
> 100 µM

Please look at this compound and report its TGI: `CN1C2=C(CC3=C1CC(C)(C)CC3=O)C(=O)CC(C)(C)C2`
> 100 µM

Please look at this compound and report its TGI: `Cc1cccc(/C=C/c2c(C(=O)/C=C/c3ccccc3)c(C)nc3ccccc23)c1`
2.81 µM

Please look at this compound and report its TGI: `CCOC(=O)c1nn2c(nc1=O)sc1ccc3ccccc3c12`
> 100 µM
